# EXPERIMENT: Cytotoxicity against African green monkey Vero cells after 72 hrs by MTT assay
# Assay type: cell-based
# EXPERIMENTAL_CONDITIONS: chlorocebus sabaeus
Items are presented alongside their recorded CC50 at 72 h.

>  <MOLECULE>
COc1ccc(/C=C/c2cc(SC)nc(N)n2)cc1

>  <READOUT_UNITS>
µM

>  <CC50 at 72 h>
250

$$$$
>  <MOLECULE>
COc1ccc(Nc2cc(/C=C/c3ccc(OC4CCCCO4)cc3)nc(N)n2)cc1 (stereo not drawn)

>  <READOUT_UNITS>
µM

>  <CC50 at 72 h>
345

$$$$
>  <MOLECULE>
CCOc1cc(/C=C/c2cc(SC)nc(N)n2)ccc1OC1CCCCO1 (stereo not drawn)

>  <READOUT_UNITS>
µM

>  <CC50 at 72 h>
248

$$$$
>  <MOLECULE>
COc1ccc(Nc2cc(/C=C/c3ccc(OCc4ccccc4)cc3)nc(N)n2)cc1

>  <READOUT_UNITS>
µM

>  <CC50 at 72 h>
57.8

$$$$
>  <MOLECULE>
CSc1cc(/C=C/c2ccc(OS(=O)(=O)[O-])cc2)nc(N)n1.[Na+]

>  <READOUT_UNITS>
µM

>  <CC50 at 72 h>
301

$$$$
>  <MOLECULE>
COc1ccc(/C=C/c2cc(SC)nc(N)n2)cc1OC

>  <READOUT_UNITS>
µM

>  <CC50 at 72 h>
125

$$$$
>  <MOLECULE>
CSc1cc(/C=C/c2ccc(OCc3ccccc3)cc2)nc(N)n1

>  <READOUT_UNITS>
µM

>  <CC50 at 72 h>
376

$$$$
>  <MOLECULE>
CSc1cc(/C=C/c2ccc(OC3CCCCO3)cc2)nc(N)n1 (stereo not drawn)

>  <READOUT_UNITS>
µM

>  <CC50 at 72 h>
122

$$$$

Just for reference, ChEMBL document CHEMBL2417491 is where these values come from.
